Test system: M. mycetomatis genome strain MM55
Assay: CLSI M38-A2 based in vitro susceptibility screening (XTT or resazurin), growth at fixed concentration
Type: cell-based, Madurella mycetomatis
Conditions: Madurella mycetomatis, 25 uM, replicate A, M. mycetomatis MM55; read-out: Percentage survival at 25um, 25 um A
activity at 25 µM overview
Express your answer in %, writing the number without its unit.

Observe how each entry below is paired with its result.
NCCCc1ccccc1C(=O)Nc1ncc([N+](=O)O)s1 [MMV1579786]
85.5
Cc1nc(-c2ccc(C3N(C)c4ccc(F)cc4C(=O)N3c3ccccc3)s2)cs1 (centres unmarked) [MMV1582492]
80
O=C(Nc1ccccc1)N(Cc1cc(Br)ccc1O)c1ccc(F)cc1 [MMV1581552]
32.5

Specify activity at 25 µM for NC(=O)c1ccccc1NC(=O)c1ccc(C(=O)Nc2ccccc2C(N)=O)cc1 [MMV508427] and stop.
92

Specify activity at 25 µM for C=C(C)n1c(=O)n(Cc2ccccc2C)c2ccccc21 [MMV1579354] and stop.
93.1
